B1: LINE1-full (parent)
chain: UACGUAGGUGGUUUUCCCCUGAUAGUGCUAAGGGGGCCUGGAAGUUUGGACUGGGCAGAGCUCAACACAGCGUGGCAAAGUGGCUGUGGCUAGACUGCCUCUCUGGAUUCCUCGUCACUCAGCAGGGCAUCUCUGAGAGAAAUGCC

variants of: B1; assay: self-cleavage, relative activity (ratio to wild type); higher = more cleavage; in vitro, sequencing; the parent is a self-cleaving ribozyme
Quantity kind: self-cleavage

Before answering, review these 10 worked examples.
Sequence text | self-cleavage
UACGUAGGUGGUUUUCCCCUGAUAGUGCUAAGGGGGCCUGGAAGUUUGGACUGGGCAGAGCUCAACUCAGCGUGGCAAAGUGGCUGUAGCUAGACUGCCUCUCUGGAUUCCUCGUCACUCAGCAGGGCAUCUCUGAGAGAAAUGCC [A67U G88A] | 0.03
UACGUAGGUGGUUUUCCCCUGAUAGUGCUAAGGGGGCCUGGAAGUUUGGACUGGGCAGAGCUCGACACAGCGUGGCAAAGUGGCUGUGGCUAGACUACCUCUCUGGAUUCCUCGUCACUCAGCAGGGCAUCUCUGAGAGAAAUGCC [A64G G97A] | 0.07
UACGUAGGUGGUUUACCCCUGGUAGUGCUAAGGGGGCCUGGAAGUUUGGACUGGGCAGAGCUCAACACAGCGUGGCAAAGUGGCUGUGGCUAGACUGCCUCUCUGGAUUCCUCGUCACUCAGCAGGGCAUCUCUGAGAGAAAUGCC [U15A A22G] | 0.79
UACGUAGGUGGUUUUCCCCUGAUAGUGCUAAGGGGGCCUGGAAGUUUGGGCUGGGCAGAGCUCAACACAGCGUGGCAAAGUGGCUGUGGCUAGACUGCCUCUCUGGAUUCCUCGUCACUCAGCAGGGCAUCUCUGAGAGAACUGCC [A50G A142C] | 1.07
UACGUAGGUGGUUUUCCCCUGAUAGUGCUAAGGGGGCCUGGAAGUUUGGACUGGGCAGAGCUCAACACAGCGUGGCAAAGUGGCUGUGGCGAGACUGCCUCUCUGGAUUCCUCGUCACUCAGCAGGGCAUCUCUGAGAGAAACGCC [U91G U143C] | 0.07
UACGUAGGUGGUUUUCCCCUGAUAGUGCUAAGGGGGCCUGGAAGUUUGGACUGGGCAGAGCUCAACAAAGCGUGGCAAAGUGGCUGUAGCUAGACUGCCUCUCUGGAUUCCUCGUCACUCAGCAGGGCAUCUCUGAGAGAAAUGCC [C68A G88A] | 0.01
UACGUAGGUGGUUUUCCCCUGAUAGUGCUAAGGGGGCCUGGAAGUUUGGACUGGGCAGAGCUCAACACAGCGUGGCAAAGUGGCUGUGGCUAGACUGCCUCUCUGGAUUCCUCGUCACUCAGCUGGGCAUCUCAGAGAGAAAUGCC [A124U U134A] | 1.31
UACGUAGGUGGUGUUCCCCUGAUAGUGCUAAGGGGGCCUGGAAGUUUGGACUGGGCAGAGCUCAACACAGCGUGGCAAAGUGGCUGUGGCUAGACUGCCUCUCUGGAGUCCUCGUCACUCAGCAGGGCAUCUCUGAGAGAAAUGCC [U13G U108G] | 1.2
UACGUAGGUGGUUUUCCCCUGAUAGUGCUAAGGGGGCCUGGAAGUUUGGACUGGGCAGAGCUCAACACAGCGUGGCAAAGUGGCUGUGGCUAGACCGCCUCUCUGGAUUCCUCGUCACUCAACAGGGCAUCUCUGAGAGAAAUGCC [U96C G122A] | 0.07
UACGUAGGUGGUUUUCCCCUGAUAGUGCUAAGGGGGCCUGGAAGUUUGGACUGGGCAGAGCUCAACACAGCGUGGCAAAGUGGCUGUGGCUAGACUGCCUCUCUGGAUACCUCGUCACUCAGCAGGGCAUCUCUGAGAAAAAUGCC [U109A G139A] | 1.49

// each listed variant needs a value for self-cleavage
1. UACGUAGGUGGUUUUCCCCUGAUAGUGCUAAGGGGGCCUGGAAGUUUGGACUGGGCAGAGCUCAACUCAGCGUGGCAAAGCGGCUGUGGCUAGACUGCCUCUCUGGAUUCCUCGUCACUCAGCAGGGCAUCUCUGAGAGAAAUGCC [A67U U81C]
2. UACGUAGGUGGUUUUCCCCUGAUAGUGCUAAGGGGGCCUGGAAGUUUGGACUGGGCAGAGCUCAACACAGCGUGGCAAAGUGGCUGUGGCUAGACUGCCUCUCUGGAUUCCUCGUCACUCAGCAGGGCAUCCCUGGGAGAAAUGCC [U132C A136G]
3. UACGUAGGAGGUUUUCCCCUGAUAGUGCUAAGGGGGCCUGGAAGUUUGGACUGGGCAGAGCUCAACACAGCGUGGCAAAGUGGCUGUGGCUAGACUGCCUCUCGGGAUUCCUCGUCACUCAGCAGGGCAUCUCUGAGAGAAAUGCC [U9A U104G]

Result:
1. 0.13
2. 1.47
3. 0.98

Provide reported self-cleavage for each item, in the same order as listed.
1. UACGUAGGUGGUUUUCCCCUGAUAGUGCUAAGGGGGCCUGGAAGUUUGGACUGAGCAGAGCUCAACACAGCGUGGCAAAGUGGCUGUGGCUAGACAGCCUCUCUGGAUUCCUCGUCACUCAGCAGGGCAUCUCUGAGAGAAAUGCC [G54A U96A]
2. UACGUAGGUGGUUUUCCCCUGAUAGUGCUAAGGGGGCCUGGAAGUUUGGACUGGGCAGAGCUCAACACAGCGUGGCAAAGUGGCUGUGGCUAGACCGCCUCUCUGGAUCCCUCGUCACUCAGCAGGGCAUCUCUGAGAGAAAUGCC [U96C U109C]
3. UACGUAGGUGGUUUUCCCCUGAUAGCGCUAAGGGCGCCUGGAAGUUUGGACUGGGCAGAGCUCAACACAGCGUGGCAAAGUGGCUGUGGCUAGACUGCCUCUCUGGAUUCCUCGUCACUCAGCAGGGCAUCUCUGAGAGAAAUGCC [U26C G35C]

Result:
1. 0.03
2. 0.08
3. 2.65
